- subject.of.test: EPHA6 (Homo sapiens, UniProt Q9UF33)
- Sequence (Q9UF33 23-1036): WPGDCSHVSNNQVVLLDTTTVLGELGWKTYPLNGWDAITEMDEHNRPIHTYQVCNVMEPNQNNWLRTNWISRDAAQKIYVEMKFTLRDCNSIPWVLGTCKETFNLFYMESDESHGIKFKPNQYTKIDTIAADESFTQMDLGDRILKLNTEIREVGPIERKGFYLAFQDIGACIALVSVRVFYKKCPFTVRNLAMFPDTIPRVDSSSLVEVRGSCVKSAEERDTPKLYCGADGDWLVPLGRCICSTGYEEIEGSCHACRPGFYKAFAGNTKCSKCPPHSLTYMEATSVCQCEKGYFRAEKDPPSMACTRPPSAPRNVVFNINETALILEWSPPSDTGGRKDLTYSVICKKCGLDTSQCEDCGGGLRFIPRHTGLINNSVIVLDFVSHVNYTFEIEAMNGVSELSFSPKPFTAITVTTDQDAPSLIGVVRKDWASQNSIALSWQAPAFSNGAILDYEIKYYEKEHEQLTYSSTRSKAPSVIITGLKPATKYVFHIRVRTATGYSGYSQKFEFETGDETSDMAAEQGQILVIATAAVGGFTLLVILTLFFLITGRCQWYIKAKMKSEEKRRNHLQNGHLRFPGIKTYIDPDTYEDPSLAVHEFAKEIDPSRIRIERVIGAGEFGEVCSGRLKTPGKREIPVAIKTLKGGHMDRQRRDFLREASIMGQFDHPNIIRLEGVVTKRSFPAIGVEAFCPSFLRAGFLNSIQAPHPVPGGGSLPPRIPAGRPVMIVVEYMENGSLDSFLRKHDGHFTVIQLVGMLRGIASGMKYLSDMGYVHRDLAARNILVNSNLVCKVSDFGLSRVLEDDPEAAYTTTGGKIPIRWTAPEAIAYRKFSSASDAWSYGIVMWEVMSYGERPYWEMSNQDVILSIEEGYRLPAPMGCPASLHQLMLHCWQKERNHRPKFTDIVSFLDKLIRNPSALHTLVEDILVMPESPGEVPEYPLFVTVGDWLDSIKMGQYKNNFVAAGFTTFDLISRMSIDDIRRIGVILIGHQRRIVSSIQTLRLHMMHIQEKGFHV
- protocol.notes: KINOMEscan competition binding
- condition.info: read-out: %Inh EPHA6
This listing pairs molecules with measured inhibition at 1 µM.
experimental.readout: inhibition at 1 µM (%)

1. O=c1cc(N2CCOCC2)nc2n(Cc3cccc(Cl)c3Cl)c(C3CC3)nn12 [UNC10225469A]    0
2. Cc1ccc(NC(=O)Nc2cccc(C(F)(F)F)c2)cc1 [UNC10225187A]    0
3. Cn1cc(-c2cnc(N)c3c(-c4ccc5c(c4)CCN5C(=O)Cc4ccccc4)csc23)cn1 [UNC10225012A]    11
4. COc1cccc(OC)c1C(=O)Nc1cccc(-c2nn3ccccc3c2-c2ccnc(Nc3cccc(F)c3)n2)c1 [UNC10225310A]    11
5. CS(=O)(=O)Cc1ccc(Nc2nccc(-c3c(-c4cccc(NC(=O)C5CCCCC5)c4)nn4ncccc34)n2)cc1 [UNC10225159A]    2

###

This listing pairs compounds with measured inhibition at 1 µM.
- subject.of.test: JAK1(JH1domain-catalytic) (Homo sapiens, UniProt P23458)
- Sequence (P23458 854-1154 limits assumed): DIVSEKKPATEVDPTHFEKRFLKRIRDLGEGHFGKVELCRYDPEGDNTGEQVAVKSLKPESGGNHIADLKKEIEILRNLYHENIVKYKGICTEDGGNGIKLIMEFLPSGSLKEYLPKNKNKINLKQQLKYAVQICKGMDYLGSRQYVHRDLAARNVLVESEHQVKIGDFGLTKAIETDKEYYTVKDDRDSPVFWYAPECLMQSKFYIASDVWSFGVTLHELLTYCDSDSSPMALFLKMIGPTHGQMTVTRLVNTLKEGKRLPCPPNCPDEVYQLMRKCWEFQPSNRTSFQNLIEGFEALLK
- protocol.notes: KINOMEscan competition binding
- condition.info: read-out: %Inh JAK1(JH1domain-catalytic)
experimental.readout: inhibition at 1 µM (%)

1. Cc1ccc(NC(=O)Nc2cccc(C(F)(F)F)c2)cc1 [UNC10225187A]    0
2. Cn1cc(-c2cnc(N)c3c(-c4ccc5c(c4)CCN5C(=O)Cc4ccccc4)csc23)cn1 [UNC10225012A]    0
3. CS(=O)(=O)Cc1ccc(Nc2nccc(-c3c(-c4cccc(NC(=O)C5CCCCC5)c4)nn4ncccc34)n2)cc1 [UNC10225159A]    0
4. COc1cccc(OC)c1C(=O)Nc1cccc(-c2nn3ccccc3c2-c2ccnc(Nc3cccc(F)c3)n2)c1 [UNC10225310A]    0
5. O=c1cc(N2CCOCC2)nc2n(Cc3cccc(Cl)c3Cl)c(C3CC3)nn12 [UNC10225469A]    9

###

- subject.of.test: INSRR (Homo sapiens, UniProt P14616)
- Sequence (P14616 27-1297): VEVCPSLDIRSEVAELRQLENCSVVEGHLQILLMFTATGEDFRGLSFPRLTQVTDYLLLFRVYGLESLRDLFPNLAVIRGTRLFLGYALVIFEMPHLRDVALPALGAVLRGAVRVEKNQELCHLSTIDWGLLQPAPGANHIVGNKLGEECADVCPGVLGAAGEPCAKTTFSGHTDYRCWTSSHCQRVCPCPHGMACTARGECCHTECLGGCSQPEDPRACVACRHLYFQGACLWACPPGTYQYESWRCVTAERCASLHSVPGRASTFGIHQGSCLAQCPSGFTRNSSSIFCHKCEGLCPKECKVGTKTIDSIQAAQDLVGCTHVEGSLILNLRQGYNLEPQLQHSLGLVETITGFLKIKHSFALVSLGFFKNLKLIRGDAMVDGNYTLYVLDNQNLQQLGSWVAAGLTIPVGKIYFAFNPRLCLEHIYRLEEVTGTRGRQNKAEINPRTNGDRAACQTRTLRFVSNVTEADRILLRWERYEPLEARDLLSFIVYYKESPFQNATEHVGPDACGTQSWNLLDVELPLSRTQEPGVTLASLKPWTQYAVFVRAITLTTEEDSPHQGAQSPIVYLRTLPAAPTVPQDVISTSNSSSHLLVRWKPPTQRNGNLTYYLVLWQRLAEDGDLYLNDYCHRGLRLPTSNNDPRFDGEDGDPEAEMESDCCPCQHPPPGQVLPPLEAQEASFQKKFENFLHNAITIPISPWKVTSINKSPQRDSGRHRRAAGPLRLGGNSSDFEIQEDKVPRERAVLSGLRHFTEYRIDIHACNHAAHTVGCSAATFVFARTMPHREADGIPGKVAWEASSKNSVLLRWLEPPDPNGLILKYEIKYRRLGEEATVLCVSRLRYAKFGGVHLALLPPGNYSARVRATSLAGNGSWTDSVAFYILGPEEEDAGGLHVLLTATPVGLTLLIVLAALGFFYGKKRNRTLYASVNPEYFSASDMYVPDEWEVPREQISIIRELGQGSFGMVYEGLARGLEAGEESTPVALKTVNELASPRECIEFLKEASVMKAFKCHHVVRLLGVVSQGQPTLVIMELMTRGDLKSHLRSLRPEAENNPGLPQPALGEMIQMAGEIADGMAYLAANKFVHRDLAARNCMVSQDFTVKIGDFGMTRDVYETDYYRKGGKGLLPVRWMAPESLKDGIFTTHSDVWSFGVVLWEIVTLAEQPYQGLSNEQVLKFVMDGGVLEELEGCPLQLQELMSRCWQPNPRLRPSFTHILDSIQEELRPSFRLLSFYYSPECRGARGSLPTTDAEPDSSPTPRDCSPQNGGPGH
- protocol.notes: KINOMEscan competition binding
- condition.info: read-out: %Inh INSRR
This listing pairs molecules with measured inhibition at 1 µM.
experimental.readout: inhibition at 1 µM (%)

1) O=c1cc(N2CCOCC2)nc2n(Cc3cccc(Cl)c3Cl)c(C3CC3)nn12 [UNC10225469A]    0
2) Cn1cc(-c2cnc(N)c3c(-c4ccc5c(c4)CCN5C(=O)Cc4ccccc4)csc23)cn1 [UNC10225012A]    13
3) Cc1ccc(NC(=O)Nc2cccc(C(F)(F)F)c2)cc1 [UNC10225187A]    0
4) CS(=O)(=O)Cc1ccc(Nc2nccc(-c3c(-c4cccc(NC(=O)C5CCCCC5)c4)nn4ncccc34)n2)cc1 [UNC10225159A]    20
5) COc1cccc(OC)c1C(=O)Nc1cccc(-c2nn3ccccc3c2-c2ccnc(Nc3cccc(F)c3)n2)c1 [UNC10225310A]    0

###

- subject.of.test: ERBB4 (Homo sapiens, UniProt Q15303)
- Sequence (Q15303 26-1308): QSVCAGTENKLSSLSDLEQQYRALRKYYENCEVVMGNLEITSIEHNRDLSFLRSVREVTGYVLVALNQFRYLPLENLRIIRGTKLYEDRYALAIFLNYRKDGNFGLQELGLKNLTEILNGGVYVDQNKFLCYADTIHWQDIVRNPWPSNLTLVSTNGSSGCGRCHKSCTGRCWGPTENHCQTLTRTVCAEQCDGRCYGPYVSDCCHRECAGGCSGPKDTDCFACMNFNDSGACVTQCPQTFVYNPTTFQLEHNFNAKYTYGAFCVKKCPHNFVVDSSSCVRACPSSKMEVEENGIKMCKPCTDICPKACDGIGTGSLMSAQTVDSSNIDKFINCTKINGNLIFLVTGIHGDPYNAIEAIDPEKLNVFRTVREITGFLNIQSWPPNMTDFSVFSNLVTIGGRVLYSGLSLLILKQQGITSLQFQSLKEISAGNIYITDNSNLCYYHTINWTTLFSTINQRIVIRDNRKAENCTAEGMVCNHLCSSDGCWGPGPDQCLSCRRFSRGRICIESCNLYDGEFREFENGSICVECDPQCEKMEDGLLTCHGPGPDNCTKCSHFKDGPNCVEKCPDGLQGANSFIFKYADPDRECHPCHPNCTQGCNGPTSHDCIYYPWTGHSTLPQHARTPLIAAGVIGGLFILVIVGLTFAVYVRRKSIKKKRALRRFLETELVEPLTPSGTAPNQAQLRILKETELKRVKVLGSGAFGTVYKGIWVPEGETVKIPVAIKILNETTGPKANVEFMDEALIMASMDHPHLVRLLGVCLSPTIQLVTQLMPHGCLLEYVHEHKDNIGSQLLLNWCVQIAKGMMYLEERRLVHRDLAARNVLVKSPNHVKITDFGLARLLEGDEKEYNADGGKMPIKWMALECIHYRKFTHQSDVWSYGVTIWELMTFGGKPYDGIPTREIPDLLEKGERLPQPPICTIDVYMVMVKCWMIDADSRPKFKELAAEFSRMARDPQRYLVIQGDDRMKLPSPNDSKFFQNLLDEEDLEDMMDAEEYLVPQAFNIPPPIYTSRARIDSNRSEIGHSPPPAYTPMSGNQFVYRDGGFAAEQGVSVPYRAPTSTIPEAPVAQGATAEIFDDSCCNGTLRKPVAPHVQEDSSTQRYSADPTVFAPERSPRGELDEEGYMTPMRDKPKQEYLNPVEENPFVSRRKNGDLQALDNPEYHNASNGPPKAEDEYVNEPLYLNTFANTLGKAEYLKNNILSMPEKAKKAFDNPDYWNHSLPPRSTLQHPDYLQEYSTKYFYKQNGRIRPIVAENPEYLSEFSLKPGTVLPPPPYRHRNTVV
- protocol.notes: KINOMEscan competition binding
- condition.info: read-out: %Inh ERBB4
experimental.readout: inhibition at 1 µM (%)

1) CS(=O)(=O)Cc1ccc(Nc2nccc(-c3c(-c4cccc(NC(=O)C5CCCCC5)c4)nn4ncccc34)n2)cc1 [UNC10225159A]    74
2) O=c1cc(N2CCOCC2)nc2n(Cc3cccc(Cl)c3Cl)c(C3CC3)nn12 [UNC10225469A]    0
3) Cn1cc(-c2cnc(N)c3c(-c4ccc5c(c4)CCN5C(=O)Cc4ccccc4)csc23)cn1 [UNC10225012A]    0
4) Cc1ccc(NC(=O)Nc2cccc(C(F)(F)F)c2)cc1 [UNC10225187A]    0
5) COc1cccc(OC)c1C(=O)Nc1cccc(-c2nn3ccccc3c2-c2ccnc(Nc3cccc(F)c3)n2)c1 [UNC10225310A]    84
